For each record, write down the corresponding TGI.
# System: IGROV1 ovarian
# test method notes: NCI tumour cell line growth inhibition, 48 h
Where a SMILES comes first, the peptide text is derived from it. [ ]: non-standard residue; d: D form. The star is where a group is joined. ξ: configuration not given here. ξF = NC(Cc1ccccc1)C(=O)O; Cbz = O=C(OCc1ccccc1)*; Aib = CC(C)(N)C(=O)O

Example cases with answers are listed next.
compound	reported
O=C(NNC1=NCCCN1)c1ccco1	> 100 µM
CN(C)C=Nc1c2ccccc2nc2ccccc12	26.3 µM
Cc1ccc(NC(=O)CC/C(CC(=O)C(C)(C)C)=N\NC(=O)C[n+]2ccccc2)cc1C	> 100 µM
COc1ccc(NC2=C(I)C(=O)c3ncccc3C2=O)cc1	1.93 µM
N#Cc1c(NC(=O)c2ccc(F)cc2)sc2c1CCCC2	> 25 µM
C=C1[C@H](OCC(C)C)[C@@H](O)[C@@H](OC(=O)c2cccnc2)C(C)(C)/C=C/[C@H](C)[C@H](OC(C)=O)[C@@]2(O)C[C@@](C)(OC(C)=O)[C@H](OC(=O)c3ccccc3)[C@@H]2[C@H]1OC(C)=O	> 5 µM
CCOC(=O)CNC(=O)C(Cc1ccccc1)NC(=O)C(C)(C)NC(=O)OCc1ccccc1 (centres undefined) (Cbz-[Aib]-[ξF]-Gly-OEt)	> 100 µM
COc1c(/C=C/C=O)cc2c(c1OC)OCO2	82.4 µM

So for `Clc1cc(Cl)c(OCCCCCCN2CCNCC2)c(Cl)c1` , the logged TGI turned out to be 8.43 µM
